Cited source: patent US4886806A

System: oxygen radical-forming activity of activated peritoneal exudate cells (PEC) of mice
ASSAY REMARKS: Peak chemiluminescence (CL) test: inhibition of oxygen radical liberation from activated peritoneal exudate cells
Type: cell-based
MEASUREMENT CONDITIONS: Mus musculus, 10^-4 Mol substance/l, added at peak of cell activity, read-out: Inhibition in vitro of the oxygen radical liberation, Chemiluminescence Test % inhibition, Pk. CL
Returns MET if the recorded inhibition at 100 µM (stock) is greater than or equal to 60%, and NOT MET otherwise.

COMPOUND | CATEGORY
CC(=O)Oc1cc(-c2oc3ccccc3c(=O)c2C(=O)N2CCN(c3ccccn3)CC2)cc(OC(C)=O)c1OC(C)=O [Example 39b] | MET
O=C(NCCCCN1CCN(Cc2ccccc2)CC1)c1c(-c2ccccc2)oc2ccccc2c1=O [Example 23] | MET
COc1cc(-c2oc3ccccc3c(=O)c2C(=O)NCCCN2CCOCC2)cc(OC)c1OC [Example 46] | NOT MET
COc1cc(OC)c2c(=O)c(C(=O)N3CCN(c4ccccn4)CC3)c(-c3ccccc3)oc2c1 [Example 34] | NOT MET
O.O=C(O)C(O)C(O)C(=O)O.O=C(c1c(-c2ccccc2)oc2ccccc2c1=O)N1CCN(Cc2ccccc2)CC1 [Example 2b, tartrate monohydrate] | NOT MET
COc1cc(-c2oc3ccccc3c(=O)c2C(=O)OCCN2CCN(c3ccccn3)CC2)cc(OC)c1OC [Example 47] | MET

====

Tested on: oxygen radical-forming activity of activated peritoneal exudate cells (PEC) of mice
ASSAY REMARKS: Peak chemiluminescence (CL) test: inhibition of oxygen radical liberation from activated peritoneal exudate cells
Format: cell-based
MEASUREMENT CONDITIONS: Mus musculus, 10^-4 Mol substance/l, added at peak of cell activity, read-out: Inhibition in vitro of the oxygen radical liberation, Chemiluminescence Test % inhibition, Pk. CL

COMPOUND | inhibition at 100 µM (stock) / %
O=C(NC1CCN(Cc2ccccc2)CC1)c1c(-c2ccccc2)oc2ccccc2c1=O [Example 18b] | 41
CCN(CC)CCCOC(=O)c1c(-c2ccccc2)oc2ccccc2c1=O.Cl [Example 3b, hydrochloride] | 61
Cl.O=C(c1c(-c2ccccc2)oc2ccccc2c1=O)N1CCN(c2ccccn2)CC1 [Example 1c, hydrochloride] | 47
O=C(NCCN1CCCC1)c1c(-c2ccccc2)oc2ccccc2c1=O [Example 20b] | 27
O.O.O=C(O)C(O)C(O)C(=O)O.O=C(c1c(-c2cc(O)c(O)c(O)c2)oc2ccccc2c1=O)N1CCN(Cc2ccccc2)CC1 [Example 14e, tartrate dihydrate] | 99
COc1cc(-c2oc3ccccc3c(=O)c2C(=O)OCCN2CCCC2)cc(OC)c1OC | 41
COc1cc(-c2oc3ccccc3c(=O)c2C(=O)NCCCCN2CCN(c3ncccn3)CC2)cc(OC)c1OC | 72

====

Recorded Minimal toxic dose mg/kg mouse p.o. values for a group of compounds are listed next.
Test system: male mice
ASSAY REMARKS: Determination of the minimum toxic dose
Type: in vivo
MEASUREMENT CONDITIONS: max. dose 300 mg/kg, 24 h
READOUT TYPE: Minimal toxic dose mg/kg mouse p.o.

COMPOUND | ENDPOINT RESULT
O.O=C(O)C(O)C(O)C(=O)O.O=C(c1c(-c2ccccc2)oc2ccccc2c1=O)N1CCN(Cc2ccccc2)CC1 | > 300 mg/kg
CCN(CC)CCNC(=O)c1c(-c2ccccc2)oc2ccccc2c1=O [Example 22b] | 300 mg/kg
COc1cc(-c2oc3ccccc3c(=O)c2C(=O)NCCCCN2CCN(c3ncccn3)CC2)cc(OC)c1OC | > 300 mg/kg
O=C(NC1CCN(Cc2ccccc2)CC1)c1c(-c2ccccc2)oc2ccccc2c1=O [Example 18b] | 300 mg/kg
Cl.O=C(c1c(-c2ccccc2)oc2ccccc2c1=O)N1CCN(c2ccccn2)CC1 | > 300 mg/kg
O=C(c1c(-c2ccccc2)oc2ccccc2c1=O)N1CC[N+]([O-])(Cc2ccccc2)CC1 | > 300 mg/kg
O=C(NCCCCN1CCN(Cc2ccccc2)CC1)c1c(-c2ccccc2)oc2ccccc2c1=O | 300 mg/kg
O=C(c1c(-c2cccc(O)c2)oc2ccccc2c1=O)N1CCN(Cc2ccccc2)CC1 | > 300 mg/kg
CCN(CC)CCCOC(=O)c1c(-c2ccccc2)oc2ccccc2c1=O.Cl | 300 mg/kg
COc1cc(-c2oc3ccccc3c(=O)c2C(=O)N2CCN(c3ccccn3)CC2)cc(OC)c1OC [Example 7a] | > 300 mg/kg
O=C(NCCN1CCCC1)c1c(-c2ccccc2)oc2ccccc2c1=O [Example 20b] | 100 mg/kg
COc1cc(-c2oc3ccccc3c(=O)c2C(=O)OCCN2CCCC2)cc(OC)c1OC | 300 mg/kg
CN1CCN(CCCCNC(=O)c2c(-c3ccccc3)oc3ccccc3c2=O)CC1 | > 300 mg/kg
COc1ccc(-c2oc3ccccc3c(=O)c2C(=O)N2CCN(C)CC2)cc1 | > 300 mg/kg
O.O.O=C(O)C(O)C(O)C(=O)O.O=C(c1c(-c2cc(O)c(O)c(O)c2)oc2ccccc2c1=O)N1CCN(Cc2ccccc2)CC1 [Example 14e] | > 300 mg/kg
COc1cc(-c2oc3ccccc3c(=O)c2C(=O)N2CCN(c3ccccn3)CC2)cc(OC)c1OC [Example 7b] | > 300 mg/kg
